Biological target: UniProt:Q8ILY1
Sequence (Q8ILY1 entry or part of it): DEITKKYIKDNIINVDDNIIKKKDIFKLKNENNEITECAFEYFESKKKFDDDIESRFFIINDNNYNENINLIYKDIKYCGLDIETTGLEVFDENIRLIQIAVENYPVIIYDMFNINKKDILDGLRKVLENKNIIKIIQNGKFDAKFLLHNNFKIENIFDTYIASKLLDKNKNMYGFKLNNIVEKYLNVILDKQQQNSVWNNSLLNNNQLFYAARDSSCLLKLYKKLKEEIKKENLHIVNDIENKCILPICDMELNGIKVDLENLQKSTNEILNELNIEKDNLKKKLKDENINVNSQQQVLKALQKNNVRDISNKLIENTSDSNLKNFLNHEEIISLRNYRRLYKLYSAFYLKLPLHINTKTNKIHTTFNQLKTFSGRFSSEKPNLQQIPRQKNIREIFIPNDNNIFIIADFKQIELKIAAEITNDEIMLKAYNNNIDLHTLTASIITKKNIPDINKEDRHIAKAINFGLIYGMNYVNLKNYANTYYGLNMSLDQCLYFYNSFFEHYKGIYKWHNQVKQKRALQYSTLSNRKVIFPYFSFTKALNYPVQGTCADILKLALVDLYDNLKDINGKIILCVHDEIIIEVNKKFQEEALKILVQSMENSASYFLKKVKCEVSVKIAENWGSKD
Assay: Fluorescence-based high-throughput DNA polymerase assay (molecular beacon), primary screen and dose-response;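 also: compound concentration given in µM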
Type: biochemical
Conditions: DRC-2; 40'; concentration 10
VALUE TYPE: % inhibition Apol 40' (%)
Respond numerically; units are % and should not be typed.

IN: // lookup % inhibition Apol 40' for CCC(C)NC(=O)c1cc(NC(C)=O)cc2nc(C)ccc12 (centres unmarked) [KU0206314]
OUT: 25

IN: // lookup % inhibition Apol 40' for C=CC1=C(C)c2cc3[nH]c(cc4nc(cc5[nH]c(cc1n2)c(C)c5CCC(=O)O)C(CCC(=O)O)=C4C)c(C)c3C=C [Molecule 91]
OUT: 70

IN: // lookup % inhibition Apol 40' for O=C(c1c[nH]c2ncccc12)N1CCCC1 [Molecule 63, O=C(c1c[nH]c2c1cccn2)N1CCCC1]
OUT: 33

IN: // lookup % inhibition Apol 40' for CC(C)(C)c1cc(C(=O)C(C#N)=NNc2cccc(Cl)c2)no1 [Molecule 98]
OUT: 40

IN: // lookup % inhibition Apol 40' for Cc1ccc(NC(=O)C2CCN(C(=O)c3cc4ccsc4[nH]3)CC2)c(Br)c1 [Molecule 14]
OUT: 49

IN: // lookup % inhibition Apol 40' for COc1ccc(-c2c(C(F)(F)F)nn3c(=O)cc(-c4cccc([N+](=O)[O-])c4)[nH]c23)cc1 [Molecule 16]
OUT: 33

IN: // lookup % inhibition Apol 40' for COc1cc(NC(=O)c2ccccc2)c(OC)cc1NC(=O)Cc1cccs1 [KU0032113]
OUT: 54

IN: // lookup % inhibition Apol 40' for CCCCSc1nnc2c(n1)OC(c1ccc([N+](=O)[O-])o1)Nc1ccccc1-2 (centres unmarked) [KU0065811]
OUT: 55

IN: // lookup % inhibition Apol 40' for CCCCc1ccc(NC(=O)CSc2nc(O)c(C#N)c(C3CCCCC3)n2)c(C)c1 [Molecule 8]
OUT: 16

IN: // lookup % inhibition Apol 40' for COc1ccc(C)cc1NC(=O)Cn1ccc2c(=O)[nH]ccc21 [Molecule 15, COc1ccc(cc1NC(=O)Cn1ccc2c1cc[nH]c2=O)C]
OUT: 63

IN: // lookup % inhibition Apol 40' for O=C(NCC1CCN(C2CCCC2)CC1)C(=O)NC1CCCC1 [KU0199596]
OUT: 21

IN: // lookup % inhibition Apol 40' for COc1ccc(NC(=O)Cn2nc3c(cc2=O)CCC3)cc1Cl [Molecule 4, COc1ccc(cc1Cl)NC(=O)Cn1nc2CCCc2cc1=O]
OUT: 69

IN: // lookup % inhibition Apol 40' for O=C1N/C(=N/c2ccccc2Cl)S/C1=C/c1ccc([N+](=O)[O-])o1 [KU0054524]
OUT: 45

IN: // lookup % inhibition Apol 40' for CCOc1nc2cccc(C(=O)OC(C)OC(=O)OC3CCCCC3)c2n1Cc1ccc(-c2ccccc2-c2nnn[nH]2)cc1 (centres unmarked) [Molecule 94]
OUT: 59

IN: // lookup % inhibition Apol 40' for O=c1[nH]c2ccc(Br)cc2c(-c2ccccc2)c1C1=NNC(c2ccco2)C1 (centres unmarked) [KU0045540]
OUT: 49

IN: // lookup % inhibition Apol 40' for CCCc1ccc(Oc2coc3cc(OC)ccc3c2=O)cc1 [KU0193249]
OUT: 17

IN: // lookup % inhibition Apol 40' for Cc1cccc2c(C(=O)NC(C)C)cc(N(C)C)nc12 [Molecule 47, CC(NC(=O)c1cc(nc2c1cccc2C)N(C)C)C]
OUT: 25
